Items are presented alongside their recorded Kinematic viscosity at 40 C. [cSt] 8% oil.
test-details: Kinematic viscosity of surfactant base formulation with added agent, calibrated Cannon viscometers at 40° C.
Format: physicochemical
measurement-setup: 8% agent in base formulation
Give your result in cSt as a bare value.

Here's what some known entries look like.
CC(=O)CCc1ccc(O)cc1    33.0
CC(CC=O)CCCC(C)(C)O (stereo not drawn) [Hydroxycitronellal]    34.1
CC(C)=CCC/C(C)=C/COC(=O)Cc1ccccc1 [Geranyl Phenyl Acetate]    36.6

Indicate the recorded Kinematic viscosity at 40 C. [cSt] 8% oil value for this compound: CCO [Ethanol, reference compound]
29.2

Please give the documented Kinematic viscosity at 40 C. [cSt] 8% oil of C=C(C)[C@H]1CC=C(C)CC1 [Limonene]
86.4

// Input: C=CC(C)(CCC=C(C)C)OC(=O)C(C)C (stereo not drawn) [Linalyl Iso Butyrate] . Output its Kinematic viscosity at 40 C. [cSt] 8% oil only.
39.9

* * *

test-details: Kinematic viscosity of surfactant base formulation with added agent, calibrated Cannon viscometers at 40° C.
Assay type: physicochemical
measurement-setup: 2% agent in base formulation
Known Kinematic viscosity at 40 C. [cSt] 2% oil of a selection of molecules
Hi! Could you send only the number? It should be in cSt, unit omitted.

CCCCCCCCCCCCCC(=O)OC(C)C [Iso Propyl Myristate]    234.2
C=C(C)[C@H]1CC=C(C)CC1 [Limonene]    366.5
CC1=CCC(C(C)C)=CC1    238.0
CCCCCCCC(OC)OC    500.7

Next:
Give the reported value of Kinematic viscosity at 40 C. [cSt] 2% oil for this record: CCCCOC(=O)c1ccccc1O [Butyl Salicylate]
367.9

* * *

test-details: Kinematic viscosity of surfactant base formulation with added agent, calibrated Cannon viscometers at 40° C.
Format: physicochemical
measurement-setup: 8% agent in base formulation
Description: Referring to Tables 1 and 2, the base formulations were made by mixing 1.6% perfume, 24% sodium undecyl sulfate (CAS#1072-24-8) active, 6% lauramidopropyl betaine (CAS#4292-10-8) active and 60.4% deionized water which leaves 8% unfilled for the addition of a viscosity reducing agent (the balance being filled in by distilled water). […] Viscosity values were calculated based on the equation: […]
Where a name gives a salt, the structure may show the parent alone.
property-label: Kinematic viscosity at 40 C. [cSt] 8% oil (cSt)
Give your result in cSt as a bare value.

CC1=CC=C(C(C)C)CC1    46.7
CCCCCC(=O)OCC(C)C [Isobutyl Hexanoate]    109.4
CCCCCC1(C)CCC(C)(C)C1=O (stereo not drawn)    47.3
CCOC(=O)CC(O)(CC(=O)OCC)C(=O)OCC [Triethyl Citrate]    40.5
CCCCCCCCCCCCCC(=O)OC(C)C [Iso Propyl Myristate]    45.0

Lab note: next compound to report on.
Answer with reported Kinematic viscosity at 40 C. [cSt] 8% oil of C=C(C)[C@H]1CC=C(C)CC1 [Dipentene]
42.6

* * *

Form field: Kinematic viscosity at 40 C. [cSt] Lowest viscosity achieved (one value per entry).
test-details: Kinematic viscosity of surfactant base formulation with added agent, calibrated Cannon viscometers at 40° C.
Assay type: physicochemical
measurement-setup: lowest over 2-8% agent, Table 2
Structures can show the parent of a compound that is named as a salt.
Just the number in cSt, nothing appended.

The cases that follow already have their Kinematic viscosity at 40 C. [cSt] Lowest viscosity achieved on record.
CCOC(=O)CC(O)(CC(=O)OCC)C(=O)OCC [Triethyl Citrate]    41
CC(=O)OCCC(C)CCCC(C)C (stereo not shown) [3,7-Dimethyloctyl Acetate]    446
CCCCCCCC(OC)OC [1,1-Dimethoxyoctane]    308

Determine from records and report Kinematic viscosity at 40 C. [cSt] Lowest viscosity achieved for CC(C)CC=C(C=O)C(C)C [2-Isopropyl-5-methyl-2-hexenal]
332

Given CC12CCC(CC1)C(C)(C)O2 [Eucalyptol] , respond with its Kinematic viscosity at 40 C. [cSt] Lowest viscosity achieved.
203
